// Kd lookup, one value per entry
target or test system: HLA-A*68:01
experimental details: IEDB peptide-MHC binding, purified MHC/competitive/radioactivity; filed as Kd, often an IC50 or EC50 that approximates it; bounds were set here for any values at or beyond the usual limits of such assays
settings: source organism: Mammarenavirus juninense

>>> df
   input_sequence  target_or_test_system  measured_value
0      KYIHCFRKPH            HLA-A*68:01       ≥ 70.1 µM

Okay, now this sequence:
Task: Dear colleague, please send me the reported Kd for ANKQYIHCFR when you can.
Result: 9.81 µM

---

target or test system: HLA-B*83:01
experimental details: IEDB peptide-MHC binding, purified MHC/competitive/fluorescence; filed as Kd, often an IC50 or EC50 that approximates it; bounds were set here for any values at or beyond the usual limits of such assays
settings: source organism: Vibrio cholerae RC385
endpoint name: Kd

Task: Enter recorded Kd with HLA-B*83:01 for MMYTVSLGK here.
Result: ≥ 5 µM

---

target or test system: HLA-A*01:01
experimental details: IEDB peptide-MHC binding, purified MHC/competitive/radioactivity; filed as Kd, often an IC50 or EC50 that approximates it; bounds were set here for any values at or beyond the usual limits of such assays
settings: source organism: SARS coronavirus Tor2
Listed here are sequences together with their documented pKd.
Entry type: numeric. Quantity: pKd, the -log10 of concentration in molar units.

Consider the following illustrative entries.
>>> df
   input_sequence  measured_value
0      ASFYYIWKSY            5.51
1       STGNYNYKY            6.41
2       GTFLCANEY            7.01

Below: the item to evaluate.
Task: // fetch pKd given entry TTTIKPVSY
Result: 6.54

---

target or test system: HLA-B*40:01
experimental details: IEDB peptide-MHC binding, purified MHC/competitive/radioactivity; filed as Kd, often an IC50 or EC50 that approximates it; bounds were set here for any values at or beyond the usual limits of such assays
settings: source organism: Mammarenavirus machupoense
endpoint name: Kd (µM)
Give just the number in µM; leave the unit off.

Task: Supply recorded Kd for EELSLMYETL here.
Result: 10.4

---

target or test system: HLA-B*08:01
experimental details: IEDB peptide-MHC binding, purified MHC/competitive/fluorescence; bounds were set here for any values at or beyond the usual limits of such assays
settings: source organism: Vaccinia virus Copenhagen
endpoint name: IC50

Task: Provide one value: measured IC50 of FINKLNGAM
Result: ≥ 138 µM

---

target or test system: HLA-B*07:02
experimental details: IEDB peptide-MHC binding, purified MHC/competitive/fluorescence; filed as Kd, often an IC50 or EC50 that approximates it; bounds were set here for any values at or beyond the usual limits of such assays
settings: source organism: Influenza A virus (A/swine/Hannover/1/1981(H1N1))
endpoint name: Kd

Task: Read the entry RRRFVQNAL and write its reported Kd.
Result: ≥ 20 µM

---

target or test system: HLA-B*45:01
experimental details: IEDB peptide-MHC binding, purified MHC/competitive/radioactivity; filed as Kd, often an IC50 or EC50 that approximates it; bounds were set here for any values at or beyond the usual limits of such assays
settings: source organism: Mammarenavirus machupoense
Recorded pKd, one value per entry.
Scale: pKd equals -log10([C]), with [C] in mol/L.

>>> df
   input_sequence  measured_value
0       KEINFLSQT            6.19

Continue with the next sequence.
Task: Write down the reported pKd (system: HLA-B*45:01) of EELSLMYETL
Result: 6.02
